The measured values listed here are drawn from the NIST ThermoML archive (doi:10.1021/je900437b).

Conditions: 323.15 K; 101 kPa; Liquid; Vibrating tube method
Examples of compounds with documented mass density follow.
quantity.measured: mass density (kg/m3)

compound.structure: CC(C)(N)CO
assay.result: 911.431

compound.structure: OCCN(CCO)CCO
assay.result: 1106.78

compound.structure: CN(CCO)CCO
assay.result: 1018.58

compound.structure: NCCO
assay.result: 992.014

---

Conditions: 298.15 K; 101 kPa; Liquid; Sing-around technique in a fixed-path interferometer

compound.structure: CN(CCO)CCO
readout.units: m/s
speed of sound: 1570.1
--
compound.structure: CC(C)(N)CO
readout.units: m/s
speed of sound: 1483.4
--
compound.structure: NCCO
readout.units: m/s
speed of sound: 1719.2
--
compound.structure: OCCN(CCO)CCO
readout.units: m/s
speed of sound: 1610.5
